The reported measurements were obtained from the supplement of paper PMC10567573.

B1: CLCN6 (parent)
chain: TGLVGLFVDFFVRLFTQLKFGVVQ

Variants of: B1
procedure.details: protein stability index of a GFP-peptide fusion (GPS, HEK-293T) (PSI 1-6); higher = more stable;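 note: lentivirally expressed fusions sorted by FACS into six bins by GFP to DsRed ratio, PSI derived from sequencing read proportions per bin multiplied by bin number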
assay.context: c terminus: a fixed tail appended
Parameter threshold = 3. Response is y when protein stability index meets or exceeds it, else n.

[
  {
    "changes": "Q17W",
    "assigned.class": "y"
  },
  {
    "changes": "G21L",
    "assigned.class": "y"
  },
  {
    "changes": "F20R",
    "assigned.class": "y"
  },
  {
    "changes": "V22E",
    "assigned.class": "y"
  },
  {
    "changes": "V22M",
    "assigned.class": "n"
  },
  {
    "changes": "V12K",
    "assigned.class": "n"
  },
  {
    "changes": "F15M",
    "assigned.class": "n"
  },
  {
    "changes": "L3F",
    "assigned.class": "n"
  },
  {
    "changes": "F10D",
    "assigned.class": "n"
  },
  {
    "changes": "V23W",
    "assigned.class": "y"
  },
  {
    "changes": "D9R",
    "assigned.class": "y"
  },
  {
    "changes": "D9W",
    "assigned.class": "n"
  },
  {
    "changes": "G2L",
    "assigned.class": "y"
  },
  {
    "changes": "L6E",
    "assigned.class": "n"
  },
  {
    "changes": "G21K",
    "assigned.class": "y"
  },
  {
    "changes": "G2T",
    "assigned.class": "n"
  },
  {
    "changes": "K19T",
    "assigned.class": "n"
  },
  {
    "changes": "L3T",
    "assigned.class": "n"
  },
  {
    "changes": "L3D",
    "assigned.class": "n"
  },
  {
    "changes": "V23P",
    "assigned.class": "n"
  },
  {
    "changes": "Q24M",
    "assigned.class": "n"
  },
  {
    "changes": "F20S",
    "assigned.class": "y"
  },
  {
    "changes": "R13G",
    "assigned.class": "n"
  },
  {
    "changes": "L6G",
    "assigned.class": "y"
  },
  {
    "changes": "V22R",
    "assigned.class": "n"
  },
  {
    "changes": "L3H",
    "assigned.class": "n"
  },
  {
    "changes": "V4W",
    "assigned.class": "y"
  },
  {
    "changes": "Q17N",
    "assigned.class": "n"
  },
  {
    "changes": "Q17L",
    "assigned.class": "n"
  },
  {
    "changes": "V12M",
    "assigned.class": "n"
  },
  {
    "changes": "F15N",
    "assigned.class": "n"
  },
  {
    "changes": "T16F",
    "assigned.class": "n"
  },
  {
    "changes": "L14Y",
    "assigned.class": "n"
  },
  {
    "changes": "V4T",
    "assigned.class": "n"
  },
  {
    "changes": "F11Y",
    "assigned.class": "n"
  },
  {
    "changes": "F15D",
    "assigned.class": "n"
  },
  {
    "changes": "L18G",
    "assigned.class": "n"
  },
  {
    "changes": "V23T",
    "assigned.class": "n"
  },
  {
    "changes": "V22Y",
    "assigned.class": "n"
  },
  {
    "changes": "V23E",
    "assigned.class": "n"
  },
  {
    "changes": "L3Q",
    "assigned.class": "n"
  },
  {
    "changes": "K19Q",
    "assigned.class": "n"
  },
  {
    "changes": "F15Y",
    "assigned.class": "n"
  },
  {
    "changes": "L14M",
    "assigned.class": "n"
  },
  {
    "changes": "L18I",
    "assigned.class": "n"
  },
  {
    "changes": "K19F",
    "assigned.class": "n"
  },
  {
    "changes": "T16P",
    "assigned.class": "n"
  },
  {
    "changes": "T16W",
    "assigned.class": "y"
  },
  {
    "changes": "G2I",
    "assigned.class": "n"
  },
  {
    "changes": "F11W",
    "assigned.class": "n"
  },
  {
    "changes": "Q24C",
    "assigned.class": "n"
  },
  {
    "changes": "F7E",
    "assigned.class": "y"
  },
  {
    "changes": "V22N",
    "assigned.class": "n"
  },
  {
    "changes": "G21M",
    "assigned.class": "y"
  },
  {
    "changes": "T1E",
    "assigned.class": "n"
  },
  {
    "changes": "F20V",
    "assigned.class": "n"
  },
  {
    "changes": "T1Y",
    "assigned.class": "n"
  },
  {
    "changes": "V22Q",
    "assigned.class": "n"
  },
  {
    "changes": "G5R",
    "assigned.class": "n"
  },
  {
    "changes": "V22C",
    "assigned.class": "n"
  },
  {
    "changes": "F10G",
    "assigned.class": "n"
  },
  {
    "changes": "Q17P",
    "assigned.class": "n"
  },
  {
    "changes": "T16E",
    "assigned.class": "n"
  },
  {
    "changes": "V12C",
    "assigned.class": "n"
  },
  {
    "changes": "L14D",
    "assigned.class": "y"
  },
  {
    "changes": "V23Y",
    "assigned.class": "n"
  },
  {
    "changes": "L18C",
    "assigned.class": "n"
  },
  {
    "changes": "D9A",
    "assigned.class": "n"
  },
  {
    "changes": "F7D",
    "assigned.class": "y"
  },
  {
    "changes": "G21N",
    "assigned.class": "n"
  },
  {
    "changes": "V8A",
    "assigned.class": "n"
  },
  {
    "changes": "V22P",
    "assigned.class": "n"
  }
]
